# ASSAYED_TARGET: ATP-dependent translocase ABCB1 (Homo sapiens, UniProt P08183)
# Sequence (P08183 whole entry): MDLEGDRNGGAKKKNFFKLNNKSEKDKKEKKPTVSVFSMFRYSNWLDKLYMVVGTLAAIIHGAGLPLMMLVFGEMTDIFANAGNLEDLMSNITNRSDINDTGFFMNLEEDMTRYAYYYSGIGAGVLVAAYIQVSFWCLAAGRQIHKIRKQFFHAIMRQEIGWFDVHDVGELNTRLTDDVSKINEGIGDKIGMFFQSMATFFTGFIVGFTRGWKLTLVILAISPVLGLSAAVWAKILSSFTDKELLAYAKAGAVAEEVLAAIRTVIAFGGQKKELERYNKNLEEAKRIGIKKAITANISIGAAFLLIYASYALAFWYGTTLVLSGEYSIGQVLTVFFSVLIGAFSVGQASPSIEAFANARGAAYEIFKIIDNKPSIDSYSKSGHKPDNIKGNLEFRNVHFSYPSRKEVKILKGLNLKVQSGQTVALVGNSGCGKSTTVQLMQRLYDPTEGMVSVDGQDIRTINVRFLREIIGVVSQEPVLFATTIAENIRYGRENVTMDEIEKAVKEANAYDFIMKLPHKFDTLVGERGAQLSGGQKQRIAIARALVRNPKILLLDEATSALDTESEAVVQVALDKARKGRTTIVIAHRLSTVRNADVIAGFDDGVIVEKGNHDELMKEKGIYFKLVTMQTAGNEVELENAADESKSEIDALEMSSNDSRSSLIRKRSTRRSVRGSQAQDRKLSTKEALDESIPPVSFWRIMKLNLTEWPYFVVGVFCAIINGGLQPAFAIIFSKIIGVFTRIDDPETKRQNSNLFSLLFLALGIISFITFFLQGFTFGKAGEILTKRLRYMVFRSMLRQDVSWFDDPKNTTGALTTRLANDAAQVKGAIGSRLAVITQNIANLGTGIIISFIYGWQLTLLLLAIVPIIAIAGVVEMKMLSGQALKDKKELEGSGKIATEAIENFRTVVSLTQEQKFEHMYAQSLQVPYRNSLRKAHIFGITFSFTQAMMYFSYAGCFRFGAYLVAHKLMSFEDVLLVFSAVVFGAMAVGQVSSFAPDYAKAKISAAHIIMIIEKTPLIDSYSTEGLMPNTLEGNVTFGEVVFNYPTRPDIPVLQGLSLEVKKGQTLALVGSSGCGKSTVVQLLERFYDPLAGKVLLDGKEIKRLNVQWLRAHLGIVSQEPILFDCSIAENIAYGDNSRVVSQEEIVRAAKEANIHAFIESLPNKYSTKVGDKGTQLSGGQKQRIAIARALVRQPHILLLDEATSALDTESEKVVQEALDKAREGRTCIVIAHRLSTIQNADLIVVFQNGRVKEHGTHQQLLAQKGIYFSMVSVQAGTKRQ
# ASSAY_REMARKS: Reversal of P-gp-mediated drug resistance in human KBV cells assessed as potentiation of paclitaxel-induced cytotoxicity by measuring cell survival at 5 uM after 72 hrs by MTT assay (reference value: 98 +/- 19%)
# Type: cell-based
API: label(entry) gives true (1) if the entry's Survival is strictly smaller than 80%; on equality or larger values it gives false (0).

SMI	ASSAYED_TARGET	CAT
CC1(C)CC[C@]2(C(=O)O)CC[C@]3(C)C(=CC[C@@H]4[C@@]5(C)Cc6nccnc6[C@@](C)(COC(=O)CCC(=O)O)[C@@H]5CC[C@]43C)[C@@H]2C1	ATP-dependent translocase ABCB1 (Homo sapiens, UniProt P08183)	false (0)
CN(C)CCCOC(=O)[C@]12CCC(C)(C)C[C@H]1C1=CC[C@@H]3[C@@]4(C)Cc5nccnc5[C@@](C)(CO)[C@@H]4CC[C@@]3(C)[C@]1(C)CC2	ATP-dependent translocase ABCB1 (Homo sapiens, UniProt P08183)	true (1)
CC1(C)CC[C@]2(C(=O)ONC(=O)CCC(=O)O)CC[C@]3(C)C(=CC[C@@H]4[C@@]5(C)Cc6nccnc6[C@@](C)(CO)[C@@H]5CC[C@]43C)[C@@H]2C1	ATP-dependent translocase ABCB1 (Homo sapiens, UniProt P08183)	false (0)
CC(C)[C@H](NC(=O)[C@]12CCC(C)(C)C[C@H]1C1=CC[C@@H]3[C@@]4(C)Cc5nccnc5[C@@](C)(CO)[C@@H]4CC[C@@]3(C)[C@]1(C)CC2)C(=O)O	ATP-dependent translocase ABCB1 (Homo sapiens, UniProt P08183)	false (0)
C[C@H](NC(=O)[C@]12CCC(C)(C)C[C@H]1C1=CC[C@@H]3[C@@]4(C)Cc5nccnc5[C@@](C)(CO)[C@@H]4CC[C@@]3(C)[C@]1(C)CC2)C(=O)O	ATP-dependent translocase ABCB1 (Homo sapiens, UniProt P08183)	false (0)
CC1(C)CC[C@]2(C(=O)N[C@@H](Cc3ccc(O)cc3)C(=O)O)CC[C@]3(C)C(=CC[C@@H]4[C@@]5(C)Cc6nccnc6[C@@](C)(CO)[C@@H]5CC[C@]43C)[C@@H]2C1	ATP-dependent translocase ABCB1 (Homo sapiens, UniProt P08183)	true (1)
CC1(C)CC[C@]2(C(=O)O)CC[C@]3(C)C(=CC[C@@H]4[C@@]5(C)Cc6nccnc6[C@@](C)(COC(=O)c6ccccc6C(=O)O)[C@@H]5CC[C@]43C)[C@@H]2C1	ATP-dependent translocase ABCB1 (Homo sapiens, UniProt P08183)	false (0)
CC1(C)CC[C@]2(C(=O)On3nnc4ccc(Cl)cc43)CC[C@]3(C)C(=CC[C@@H]4[C@@]5(C)CC[C@H](O)[C@@](C)(CO)[C@@H]5CC[C@]43C)[C@@H]2C1	ATP-dependent translocase ABCB1 (Homo sapiens, UniProt P08183)	false (0)

----------
# ASSAYED_TARGET: ATP-dependent translocase ABCB1 (Homo sapiens, UniProt P08183)
# ASSAY_REMARKS: Reversal of P-gp-mediated drug resistance in human KBV cells assessed as potentiation of paclitaxel-induced cytotoxicity by measuring cell survival at 5 uM after 72 hrs by MTT assay (reference value: 98 +/- 19%)
# Type: cell-based
molecules and their reported Survival

MOLECULE	Survival, %
CC1(C)CC[C@]2(C(=O)On3nnc4ccc(Cl)cc43)CC[C@]3(C)C(C(=O)C[C@@H]4[C@@]5(C)CCC(=O)[C@@](C)(CO)[C@@H]5CC[C@]43C)[C@@H]2C1 (stereo not given in full)	112
COc1ccc(CCN(C)CCCC(C#N)(c2ccc(OC)c(OC)c2)C(C)C)cc1OC (stereo not given)	23
CC1(C)CC[C@]2(C(=O)N[C@@H](CO)C(=O)O)CC[C@]3(C)C(=CC[C@@H]4[C@@]5(C)Cc6nccnc6[C@@](C)(CO)[C@@H]5CC[C@]43C)[C@@H]2C1	76
CC1(C)CC[C@]2(C(=O)OCCCCCOC(=O)[C@]34CCC(C)(C)C[C@H]3C3=CC[C@@H]5[C@@]6(C)CC[C@H](O)[C@@](C)(CO)[C@@H]6CC[C@@]5(C)[C@]3(C)CC4)CC[C@]3(C)C(=CC[C@@H]4[C@@]5(C)CC[C@H](O)[C@@](C)(CO)[C@@H]5CC[C@]43C)[C@@H]2C1	42
CC1(C)CC[C@]2(C(=O)N[C@@H](CCC(=O)O)C(=O)O)CC[C@]3(C)C(=CC[C@@H]4[C@@]5(C)Cc6nccnc6[C@@](C)(CO)[C@@H]5CC[C@]43C)[C@@H]2C1	80
CC1(C)CC[C@]2(C(=O)OCc3ccccc3)CC[C@]3(C)C(=CC[C@@H]4[C@@]5(C)Cc6nccnc6[C@@](C)(CO)[C@@H]5CC[C@]43C)[C@@H]2C1	18
CC1(C)CC[C@]2(C(=O)OCCCCOC(=O)[C@]34CCC(C)(C)C[C@H]3C3=CC[C@@H]5[C@@]6(C)CC[C@H](O)[C@@](C)(CO)[C@@H]6CC[C@@]5(C)[C@]3(C)CC4)CC[C@]3(C)C(=CC[C@@H]4[C@@]5(C)CC[C@H](O)[C@@](C)(CO)[C@@H]5CC[C@]43C)[C@@H]2C1	44
CC1(C)CC[C@]2(C(=O)O)CC[C@]3(C)C(=CC[C@@H]4[C@@]5(C)Cc6nccnc6[C@@](C)(CO)[C@@H]5CC[C@]43C)[C@@H]2C1	61
CC(C)C[C@H](NC(=O)[C@]12CCC(C)(C)C[C@H]1C1=CC[C@@H]3[C@@]4(C)Cc5nccnc5[C@@](C)(CO)[C@@H]4CC[C@@]3(C)[C@]1(C)CC2)C(=O)O	76
CC1(C)CC[C@]2(C(=O)O)CC[C@]3(C)C(C(=O)C[C@@H]4[C@@]5(C)CCC(=O)[C@@](C)(CO)[C@@H]5CC[C@]43C)[C@@H]2C1 (stereo not given in full)	104
CC1(C)CC[C@]2(C(=O)N3CCC[C@H]3C(=O)O)CC[C@]3(C)C(=CC[C@@H]4[C@@]5(C)Cc6nccnc6[C@@](C)(CO)[C@@H]5CC[C@]43C)[C@@H]2C1	91
CC1(C)CC[C@]2(C(=O)O)CC[C@]3(C)C(=CC[C@@H]4[C@@]5(C)Cc6nccnc6[C@@](C)(COC(=O)C6CCCCC6C(=O)O)[C@@H]5CC[C@]43C)[C@@H]2C1 (stereo not given in full)	100
CC1(C)CC[C@]2(C(=O)On3nnc4ccccc43)CC[C@]3(C)C(C(=O)C[C@@H]4[C@@]5(C)CCC(=O)[C@@](C)(CO)[C@@H]5CC[C@]43C)[C@@H]2C1 (stereo not given in full)	127
CC1(C)CC[C@]2(C(=O)OCCOC(=O)[C@]34CCC(C)(C)C[C@H]3C3=CC[C@@H]5[C@@]6(C)CC[C@H](O)[C@@](C)(CO)[C@@H]6CC[C@@]5(C)[C@]3(C)CC4)CC[C@]3(C)C(=CC[C@@H]4[C@@]5(C)CC[C@H](O)[C@@](C)(CO)[C@@H]5CC[C@]43C)[C@@H]2C1	37
CC1(C)CC[C@]2(C(=O)NCC(=O)O)CC[C@]3(C)C(=CC[C@@H]4[C@@]5(C)Cc6nccnc6[C@@](C)(CO)[C@@H]5CC[C@]43C)[C@@H]2C1	101
CC1(C)CC[C@]2(C(=O)N[C@@H](Cc3ccccc3)C(=O)O)CC[C@]3(C)C(=CC[C@@H]4[C@@]5(C)Cc6nccnc6[C@@](C)(CO)[C@@H]5CC[C@]43C)[C@@H]2C1	129
CC1(C)CC[C@]2(C(=O)OCCN)CC[C@]3(C)C(=CC[C@@H]4[C@@]5(C)Cc6nccnc6[C@@](C)(CO)[C@@H]5CC[C@]43C)[C@@H]2C1	24
CC1(C)CC[C@]2(C(=O)O)CC[C@]3(C)C(=CC[C@@H]4[C@@]5(C)CC[C@H](O)[C@@](C)(CO)[C@@H]5CC[C@]43C)[C@@H]2C1	100
CC1(C)CC[C@]2(C(=O)OCCCOC(=O)[C@]34CCC(C)(C)C[C@H]3C3=CC[C@@H]5[C@@]6(C)CC[C@H](O)[C@@](C)(CO)[C@@H]6CC[C@@]5(C)[C@]3(C)CC4)CC[C@]3(C)C(=CC[C@@H]4[C@@]5(C)CC[C@H](O)[C@@](C)(CO)[C@@H]5CC[C@]43C)[C@@H]2C1	45
CC1(C)CC[C@]2(C(=O)N[C@@H](CC(=O)O)C(=O)O)CC[C@]3(C)C(=CC[C@@H]4[C@@]5(C)Cc6nccnc6[C@@](C)(CO)[C@@H]5CC[C@]43C)[C@@H]2C1	81

----------
# ASSAY_REMARKS: n-octanol/aqueous buffer solution partition coefficient, log P of the compound at pH 6.8 after 4 hrs by HPLC method
# Type: physicochemical

SMI	logD at 4 h
C[C@H](NC(=O)[C@]12CCC(C)(C)C[C@H]1C1=CC[C@@H]3[C@@]4(C)Cc5nccnc5[C@@](C)(CO)[C@@H]4CC[C@@]3(C)[C@]1(C)CC2)C(=O)O	-1.07
CC1(C)CC[C@]2(C(=O)N[C@@H](Cc3ccccc3)C(=O)O)CC[C@]3(C)C(=CC[C@@H]4[C@@]5(C)Cc6nccnc6[C@@](C)(CO)[C@@H]5CC[C@]43C)[C@@H]2C1	-0.32
CC1(C)CC[C@]2(C(=O)OCCN)CC[C@]3(C)C(=CC[C@@H]4[C@@]5(C)Cc6nccnc6[C@@](C)(CO)[C@@H]5CC[C@]43C)[C@@H]2C1	0.36
CC1(C)CC[C@]2(C(=O)NCC(=O)O)CC[C@]3(C)C(=CC[C@@H]4[C@@]5(C)Cc6nccnc6[C@@](C)(CO)[C@@H]5CC[C@]43C)[C@@H]2C1	-0.43
